Values compiled from paper PMC7819943.

- Test system: OsSMF1 (Oryza sativa, UniProt Q6ZLB0 1-436)
- Sequence: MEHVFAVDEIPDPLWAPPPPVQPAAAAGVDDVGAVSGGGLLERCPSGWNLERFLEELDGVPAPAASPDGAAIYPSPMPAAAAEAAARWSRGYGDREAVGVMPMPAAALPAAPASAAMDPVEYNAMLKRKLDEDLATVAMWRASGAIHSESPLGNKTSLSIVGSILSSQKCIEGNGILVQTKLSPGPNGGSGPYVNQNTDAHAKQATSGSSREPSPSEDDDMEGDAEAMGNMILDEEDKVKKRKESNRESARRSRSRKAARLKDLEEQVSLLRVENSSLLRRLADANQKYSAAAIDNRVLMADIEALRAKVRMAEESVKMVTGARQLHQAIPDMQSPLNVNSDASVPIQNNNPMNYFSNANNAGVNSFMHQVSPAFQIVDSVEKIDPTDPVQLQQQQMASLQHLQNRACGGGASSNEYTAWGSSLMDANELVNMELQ
- Assay details: protein-binding microarray (RPBM); PBS, 2% BSA, 51.3 ng/ul salmon testes DNA, 50 uM zinc acetate, 200 nM TF, 25 C, 1 h; high values mean tight binding
- Condition info: protein: recombinant; tags: N-terminal polyhistidine and DsRed monomer fusion (pET32a); chain copies: 2; label: CyDye5-dUTP incorporated in the synthesized complementary strand; 3' TTTTT single-stranded linker to array surface; dsDNA, one strand shown
In all, about 39,000 sequences were measured (“fluorescence intensity (a.u.)”: median about 4,300, highest 2% from about 39,000 on). This is one part of a sample in which the highest values are shown more often than they occur.
Assay metric: binding signal

ACACTATGATTATAATATATTTACATGTGTGAATTGTTTACGGAGTCACCTAGTGCAG; 3640 fluorescence intensity (a.u.)
TTCTAATTACTATTTAAGCTTATCCTAATTAACTCACATGCGGAGTCACCTAGTGCAG; 3230 fluorescence intensity (a.u.)
TATAATGTTTGGGTGCGTTTAATTCTATTTGAATTACACTCGGAGTCACCTAGTGCAG; 48000 fluorescence intensity (a.u.)
ATACCGGTGCGTTACAACGAGGTGAATGTTATTTTAATTTCGGAGTCACCTAGTGCAG; 25200 fluorescence intensity (a.u.)

State measured binding signal of the sequence AATCAACAAATAACTAATATTCTTACATCAGCTACTATAACGGAGTCACCTAGTGCAG with OsSMF1 (Oryza sativa, UniProt Q6ZLB0 1-436). 28600 fluorescence intensity (a.u.)
